Measured values drawn from patent US20060110388A1 for this set.

target: T1, β Amyloid peptide 1-40 (human, UniProt P05067 672-711); test: BIAcore; against m266
T1 construct: domain: β Amyloid peptide 1-40; Biotinylated peptide 1-40 (Biosource) on avidin Sepharose only captured free antibody in KinExA; also called Aβ 1-40; human Aβ (1-40)
T1 sequence (P05067 672-711 limits assumed): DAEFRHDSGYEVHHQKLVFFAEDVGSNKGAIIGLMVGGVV
EXPERIMENTAL ENDPOINT: Fold Increase (kon) (fold)
Your answer should be a plain number; it is taken to be in fold.

Please fill in: Fold Increase (kon) reported for 1D4 monoclonal antibody (IgG1) (antibody, V domains shown) VH: EVQLVESGGGLVKPGGSLRLSCAASGFTFSRYSMSWVRQAPGKGLEWVGQINSQGNSTYYPDTVKGRFTISRDDSKNTLYLQMNSLKTEDTAVYYCTTGDRWGQGTLVTVSS VL: DIVMTQTPLSLSVTPGQPASISCRSSQSLIYSDGNAYLHWYLQKPGQSPQLLIYKVSNRFSGVPDRFSGSGSGTDFTLKISRVEAEDVGVYYCSQSTHSPWTFGGGTKVEIK = 4
